Cited source: PubChem BioAssay (NCI)

# System: SF-268 CNS
# assay-comment: NCI-60 one-dose screen, 48 h (100 = growth as untreated, 0 = no growth, -100 = all killed)
# recorded-conditions: 10 µM
This is part of a sample that, as a whole, favours compounds with a hit. Of some 83,000 tested, about 20% had one in any assay. The source made the active and inactive calls. How the source made its calls: active means growth percent below 10; inactive means the rest.

>  <molecule>
COc1cccc(/C=N/NC(=S)NC2CC3CCC2C3)c1O (stereo not given)

>  <growth>
63.3% (inactive)

$$$$
>  <molecule>
Cc1cc(C(O)(c2ccc(Nc3ccccc3)cc2)c2ccc(Nc3ccc(S(=O)(=O)O)cc3)cc2)ccc1N (stereo not given)

>  <growth>
14.8% (inactive)

$$$$
>  <molecule>
O=C1c2ccccc2C(=O)N1OCc1ccccc1

>  <growth>
106% (inactive)

$$$$
>  <molecule>
COCCCC/C(=N\OCCN)c1ccc(C(F)(F)F)cc1

>  <growth>
102% (inactive)

$$$$
>  <molecule>
CC(=O)OC(OC(C)=O)C1CCCO1 (stereo not given)

>  <growth>
97.8% (inactive)

$$$$
>  <molecule>
NCCCN

>  <growth>
103% (inactive)

$$$$
>  <molecule>
c1csc(-c2cc(-c3cc(-c4cccs4)[nH]n3)n[nH]2)c1

>  <growth>
107% (inactive)

$$$$
>  <molecule>
COc1ccc(NC(=O)CCl)cc1

>  <growth>
73.3% (inactive)

$$$$
>  <molecule>
COc1ccccc1N1CCN(C(=S)Nc2ccccc2)CC1

>  <growth>
99.3% (inactive)

$$$$
>  <molecule>
CC1OC(Oc2c(-c3ccc(O)c(O)c3)oc3cc(O)cc(O)c3c2=O)C(O)C(O)C1O (stereo not given)

>  <growth>
104% (inactive)

$$$$
>  <molecule>
N#CC1(Nc2ccc3c4c(cccc24)CC3)CCCCC1

>  <growth>
97% (inactive)

$$$$
>  <molecule>
Cc1cc(N)ccc1-c1ccc(N)cc1C

>  <growth>
103% (inactive)

$$$$
>  <molecule>
CCc1nn(Cc2ccccc2)c2nc(C)c(CCc3ccccc3)c(Cl)c12

>  <growth>
106% (inactive)

$$$$
>  <molecule>
O=C(Cc1nc2ccc([N+](=O)[O-])cc2nc1CC(=O)c1ccccc1)c1ccccc1

>  <growth>
73.9% (inactive)

$$$$
>  <molecule>
COc1cc2nn(-c3ccccc3N)nc2cc1OC

>  <growth>
100% (inactive)

$$$$
>  <molecule>
CN(c1ccccc1)c1ncnc2c1ncn2C

>  <growth>
97.5% (inactive)

$$$$
>  <molecule>
CC(C)C(C#N)(C(C)C)C(C)C

>  <growth>
98.1% (inactive)

$$$$
>  <molecule>
CCOC(=O)c1cc(/C=C/c2ccc(Cl)cc2Cl)on1

>  <growth>
89.1% (inactive)

$$$$
>  <molecule>
COc1ccc(C(C)C=O)cc1 (stereo not given)

>  <growth>
114% (inactive)

$$$$
>  <molecule>
CC(CN1CCCCC1)NC(=O)c1scnc1-c1ccccc1 (stereo not given)

>  <growth>
115% (inactive)

$$$$
>  <molecule>
c1ccc(Sc2ccccc2)cc1

>  <growth>
97% (inactive)

$$$$
>  <molecule>
CC1(C)N=C(N)N=C(N)N1c1ccc(Cl)cc1

>  <growth>
36.6% (inactive)

$$$$
>  <molecule>
O=c1cc(-c2ccccc2)[nH]c(=S)[nH]1

>  <growth>
92.1% (inactive)

$$$$
>  <molecule>
O=P(O)(O)OCC(O)CO (stereo not given)

>  <growth>
108% (inactive)

$$$$
>  <molecule>
O=[N+]([O-])c1cccc2nsnc12

>  <growth>
101% (inactive)

$$$$
>  <molecule>
O=[N+]([O-])c1ccc(-c2noc(-c3cccs3)n2)cc1

>  <growth>
101% (inactive)

$$$$
>  <molecule>
COC(=O)c1cccnc1

>  <growth>
95.4% (inactive)

$$$$
>  <molecule>
O=[N+]([O-])c1ccc(N=Nc2ccc(O)c3ccccc23)cc1

>  <growth>
45.9% (inactive)

$$$$
>  <molecule>
CC(C)=C(NC(=O)c1ccccc1)C(=O)O

>  <growth>
96.1% (inactive)

$$$$
>  <molecule>
CCCCC(O)c1ccccc1 (stereo not given)

>  <growth>
98.6% (inactive)

$$$$
>  <molecule>
O=C(O)c1ccnc(Br)c1

>  <growth>
107% (inactive)

$$$$
>  <molecule>
CC(=O)Nc1cccc(NC(C)=O)n1

>  <growth>
100% (inactive)

$$$$
>  <molecule>
CCOC(=O)Nc1cc2c(c(N)n1)N=C(c1ccccc1)CO2

>  <growth>
38.4% (inactive)

$$$$
>  <molecule>
CC(C)(O)C#CC#CC(C)(C)O

>  <growth>
106% (inactive)

$$$$
>  <molecule>
COCCCNC(=O)c1nnn2c1nc(N)c1cc(Cl)ccc12

>  <growth>
94.1% (inactive)

$$$$
>  <molecule>
O=C(O)CCCCNC(=O)c1ccccc1

>  <growth>
102% (inactive)

$$$$
>  <molecule>
CCOC(=O)c1[nH]c(C)c(C(=O)O)c1C

>  <growth>
105% (inactive)

$$$$
>  <molecule>
CN(C)c1ccc(S(=O)(=O)O)cc1

>  <growth>
91.9% (inactive)

$$$$
>  <molecule>
CCCCOC(OCCCC)c1ccccc1

>  <growth>
96.5% (inactive)

$$$$
>  <molecule>
COc1ccc(OC)c(/C=C2\CCc3ccccc3C2=O)c1

>  <growth>
56.3% (inactive)

$$$$
>  <molecule>
Cc1ccc(/C(C#N)=C/c2ccc3c(c2)OCO3)cc1

>  <growth>
87.7% (inactive)

$$$$
>  <molecule>
CCN=c1cc2sc3cc(NCC)c(C)cc3nc-2cc1C

>  <growth>
-11.3% (active)

$$$$
>  <molecule>
COc1cc2c3c(n(C)c(=O)c2cc1OC)-c1cc2c(cc1C3=O)OCO2

>  <growth>
59.3% (inactive)

$$$$
>  <molecule>
Cc1cc(NC(=O)CSCC(=O)O)no1

>  <growth>
114% (inactive)

$$$$
>  <molecule>
CC(C)(C)n1nc(C2CC2)c(Br)c1NC(=O)c1ccccc1F

>  <growth>
112% (inactive)

$$$$
>  <molecule>
Cc1nc2ccccc2c(C(=O)O)c1O

>  <growth>
110% (inactive)

$$$$
>  <molecule>
CCOC(=O)c1[nH]c(C)c(C(C)=O)c1C

>  <growth>
93.5% (inactive)

$$$$
>  <molecule>
CC1=CC(=O)c2ccccc2C1=O

>  <growth>
119% (inactive)

$$$$
>  <molecule>
Cc1cccc([N+](=O)[O-])c1Cl

>  <growth>
101% (inactive)

$$$$
>  <molecule>
Clc1ccc(-c2nnc(-c3cccc4ccccc34)o2)cc1

>  <growth>
103% (inactive)

$$$$
>  <molecule>
CC1(C)OC(=O)C(c2ccsc2)C(=O)O1

>  <growth>
99.6% (inactive)

$$$$
>  <molecule>
NC(C(=O)O)C(O)c1ccco1 (stereo not given)

>  <growth>
116% (inactive)

$$$$
>  <molecule>
C/C(=C\c1cc(Cl)ccc1OCC(=O)O)[N+](=O)[O-]

>  <growth>
103% (inactive)

$$$$
>  <molecule>
CC1(C)N=C(N)N=C(N)N1c1cccc(Br)c1

>  <growth>
37.2% (inactive)

$$$$
>  <molecule>
CCCCC(=O)c1ccc(OC)cc1

>  <growth>
107% (inactive)

$$$$
